Each entry below carries its recorded RP-LC retention time.
# assay: gradient 5% acetonitrile 3 min, to 50% in 2 min, to 85% in 15 min, held 3 min, 100 µL/min
# condition.description: column: Zorbax Extend-C18 2.1 x 50 mm; eluents: water / acetonitrile, 0.1% formic acid
Provide only the numeric value, understood in s.

COc1cc(NC(=O)Cn2c(=O)n(C3CCCCC3)c3ncccc32)cc(OC)c1	954
CN(C)c1ccc(NC(=O)c2c(O)c3ccccc3n(-c3ccccc3)c2=O)cc1	1180
CCCNC(=O)C1CCN(c2nc3ccc(-c4ccccc4)nc3s2)CC1	906
CC(C)NC(=O)C(=O)c1c(-c2ccccc2)[nH]c2ccccc12	776
COc1ccccc1N1CCN(S(=O)(=O)c2cc(-c3cc(C(F)(F)F)on3)cs2)CC1	1200

Form field: reported RP-LC retention time of CCOc1ccc(-c2nc(NC(=O)Cc3csc(COc4cc(C)ccc4C)n3)sc2C)cc1 1350

* * *

# assay: gradient 5% acetonitrile 3 min, to 50% in 2 min, to 85% in 15 min, held 3 min, 100 µL/min
# condition.description: column: Zorbax Extend-C18 2.1 x 50 mm; eluents: water / acetonitrile, 0.1% formic acid
reported.property: RP-LC retention time (s)
Provide only the numeric value, understood in s.

Take a look at these entries with their results.
COc1cc(NC(=O)N2CCC3(CC2)NC(=O)c2ccccc2O3)cc(OC)c1OC	685
CCOc1ccc(NC(=O)c2cc(C)n3nc(-c4ccco4)cc3n2)cc1	1130
CC1(C(=O)NCc2ccccc2)Cn2cnc(C(=O)NC3CC3)c2C(=O)N1C1CC1 (stereo not given)	660
O=C(NCCC1=CCCCC1)C1CCN(c2cnc(N3CCCCC3)nc2)CC1	872
Cc1ccc(CNc2cc(-n3ccnc3)ncn2)cc1	648
O=C1NC(=O)/C(=C/c2ccc(-c3ccc(F)cc3O)o2)S1	923

We now examine a further compound.
Form field: reported RP-LC retention time of Cc1ccc(-n2nnnc2CNC(=O)c2ccc([N+](=O)[O-])o2)cc1C 745

* * *

# assay: gradient 5% acetonitrile 3 min, to 50% in 2 min, to 85% in 15 min, held 3 min, 100 µL/min
# condition.description: column: Zorbax Extend-C18 2.1 x 50 mm; eluents: water / acetonitrile, 0.1% formic acid
Each entry gets false if its RP-LC retention time stays under 900 s, and true if its RP-LC retention time is 900 s or above.

# count of solved cases: 8
Cc1ccccc1-c1noc(C2CCCN2C(=O)Nc2ccccc2Cl)n1 (centres undefined)	false
Cc1cccc(NC(=O)C2CC(=O)N(c3ccc4c(c3)CCN4C(=O)C3CC3)C2)c1C (centres undefined)	false
COc1cccc2sc(N3CCc4ccccc4C3)nc12	true
CCOC(=O)C1CCc2sc(NC(=O)c3n[nH]c4ccccc34)nc21 (centres undefined)	false
Cc1ccc(NC(=O)Nc2ccc3nc(N4CCN(C)CC4)cc(C)c3c2)c([N+](=O)[O-])c1	false
CCCc1cc(=O)oc2cc(C)cc(OCC(=O)N[C@H](C(=O)O)C(C)C)c12	false
CCc1nc(-c2cc(S(=O)(=O)Nc3cc(F)ccc3Cl)c(C)s2)cs1	true
CC(C)c1noc(-c2cc(=O)n(CC(=O)Nc3ccc(F)cc3F)c3ccccc23)n1	true

For the next question, use this compound.
Item O=C(CCc1nc(CSc2nnc(-c3ccccc3)o2)no1)Nc1ccc(Cl)cc1 with RP-LC retention time of 900 s or above? true
